MIC listing for selected molecules.
# System: C. tropicalis ATCC 750
# measurementProtocol: Antifungal activity: MIC/MFC, disc-diffusion
# Format: cell-based
# conditionSummary: Candida tropicalis, ATCC750; read-out: MIC

C[Si]1(C)OB(O)c2cc(F)c(S)c(F)c21 [Compound 1e] | 400 µg/mL

C. tropicalis ATCC 750 / MIC / C[Si]1(C)OB(O)c2cc(F)c(SC3CC(=O)NC3=O)c(F)c21 (stereo not drawn) [Compound 12] : value? > 400 µg/mL

C. tropicalis ATCC 750 / MIC / C[Si]1(C)OB(O)c2cc(F)c(SCCC(=O)OCCCCCC[n+]3ccccc3)c(F)c21 [Compound 18] : value? 400 µg/mL

C. tropicalis ATCC 750 / MIC / C[Si]1(C)OB(O)c2cc(F)c(SCCC(N)=O)c(F)c21 [Compound 7] : value? > 400 µg/mL

C. tropicalis ATCC 750 / MIC / C[Si]1(C)OB(O)c2cc(F)c(S(=O)(=O)Nc3ccc(F)cc3)c(F)c21 [Compound 28] : value? > 400 µg/mL

C. tropicalis ATCC 750 / MIC / C[Si]1(C)OB(O)c2cc(F)c(SCCC(=O)Nc3cnccn3)c(F)c21 [Compound 10] : value? > 400 µg/mL

C. tropicalis ATCC 750 / MIC / C[Si]1(C)OB(O)c2ccc(SCC(=O)c3ccccc3)c(F)c21 [Compound 23] : value? 400 µg/mL
